test: E. coli DRC41 culture turbidity changes, primary screen, E. coli filamentation inducer project, strain DRC41, OD650, 48 h (AID 1152);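 note: E. coli MC1000 strain DRC41 lacking acrAB efflux pump and sulA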; conditions: E. coli DRC41 (acrAB sulA), higher = more signal, called active from +8 up or from −8 down
Respond with MET for z-score values of -0.9 and above, NOT MET for values below.

[[record]]
compound = "NC(=O)N1C(=O)C2C(C1=O)C1C=C(CCCO)C2C(C2CC2)N1Cc1cccc(OC(F)(F)F)c1 (stereo not given)"
discrete_label = "MET"

[[record]]
compound = "COCCOC(=O)N1C(=O)[C@@]2(c3cc(C#CCNC(N)=O)ccc31)[C@H](c1ccc(O)cc1)N1[C@H](c3ccccc3)[C@H](c3ccccc3)OC(=O)[C@H]1[C@@H]2C(=O)N1CCN(c2ncccn2)CC1"
discrete_label = "MET"

[[record]]
compound = "CCOC(=O)C1=CCN(S(=O)(=O)c2ccc(C)cc2)C1c1ccccc1 (stereo not given)"
discrete_label = "NOT MET"

[[record]]
compound = "CN(C)CCCNC(=O)[C@@H]1c2ccccc2C(=O)N(C2CCCCC2)[C@H]1c1ccc(CO)cc1"
discrete_label = "MET"

[[record]]
compound = "C=CCC(OC(C)=O)[C@@H]1[C@@H](N(Cc2ccc(-c3ccccc3)cc2)C(=O)Cc2ccc(F)cc2)c2cc(OCCCO)ccc2N1C(=O)Cc1ccc2ccccc2c1 (stereo not given in full)"
discrete_label = "MET"

[[record]]
compound = "[N-]=[N+]=Nc1ccccc1C[C@@]1(C(=O)O)N=C(c2ccc(OCCCO)cc2)O[C@@H]1c1ccccc1N=[N+]=[N-]"
discrete_label = "MET"

[[record]]
compound = "C=CCN1C(=O)[C@]2(O[C@H](CCO)[C@@H]([Si](C)(C)c3ccc(OC)cc3)[C@@H]2C)c2cc(NC(=O)c3ccc(OC)cc3)ccc21"
discrete_label = "NOT MET"

[[record]]
compound = "CC(=O)N1CC(C(O)C2C=CC3C(=O)NC(=O)C3N2Nc2ccc(Cl)cc2Cl)c2ccccc21 (stereo not given)"
discrete_label = "NOT MET"

[[record]]
compound = "O=C(CS)NCCCCCCNC(=O)[C@@H]1C[C@@H]2C(=O)NCC(=O)N2[C@@H]1c1ccc(O)cc1"
discrete_label = "MET"

[[record]]
compound = "COC(=O)[C@@]1(Cc2ccc(OC)cc2)[C@H]2c3cc(C(=O)N4CCCC4)n(Cc4ccc(OC(F)(F)F)cc4)c3C[C@H]2CN1C(=O)c1ccccc1"
discrete_label = "NOT MET"

[[record]]
compound = "COc1cc(NN2C(C(O)c3ccccc3)C=CC3C(=O)N(C)C(=O)C32)cc(OC)c1OC (stereo not given)"
discrete_label = "NOT MET"

[[record]]
compound = "COC(=O)C(CC#Cc1ccc2c(c1)[C@]1(C(=O)N2)[C@H](C(=O)Nc2nc3ccccc3s2)[C@H]2C(=O)O[C@H](c3ccccc3)[C@H](c3ccccc3)N2[C@@H]1c1ccc(OCCO)cc1)C(=O)OC"
discrete_label = "MET"

[[record]]
compound = "C=C(C)[C@@H]1CC=C(C(O)C2C=CC3C(=O)N(c4ccccc4)C(=O)C3N2Nc2ccc(C#N)cc2)CC1 (stereo not given in full)"
discrete_label = "NOT MET"

[[record]]
compound = "CC(=O)NCCCC[C@@H]1NC(=O)[C@@H]2C[C@H](C(=O)NCCCCCCN)[C@H](c3cccc(OCCO)c3)N2C1=O"
discrete_label = "MET"

